B1: LINE1-full (parent)
chain: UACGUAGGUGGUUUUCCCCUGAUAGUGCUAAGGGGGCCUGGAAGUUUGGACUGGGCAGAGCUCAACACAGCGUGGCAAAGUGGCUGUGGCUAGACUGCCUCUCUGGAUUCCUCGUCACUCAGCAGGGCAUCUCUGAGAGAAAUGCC

Variants of: B1
test_details: self-cleavage, relative activity (ratio to wild type); higher = more cleavage; in vitro, sequencing; the parent is a self-cleaving ribozyme
Param threshold (1) applies to self-cleavage; output criterion met when value >= threshold, criterion not met when value < threshold.

Ask: Assess whether reported self-cleavage for UACGUAGGUGGUUUUCCCCUGAUAGUGCUAAGGGGGCCUGGAAGUUAGGACUGGGCAGAGCUCAACACAGCGUGGCAAAGUGGCAGUGGCUAGACUGCCUCUCUGGAUUCCUCGUCACUCAGCAGGGCAUCUCUGAGAGAAAUGCC sits at 1 or higher.
Result: criterion not met

Ask: Field entry: UACGUAGGUGGUUUUCCCUUGAUAGUGCUAAGGGGGCCUGGAAGUUUGGACUGGGCAGAGCUCAACACAGCGUGGCAAAGUGGCUGUGGCUAGACUGCCUCUCUGGAUUCCUCGUCACUCAGCAGGGCAUCUCUGAGUGAAAUGCC
Result: criterion met

Ask: Field entry: UACGUAGGUGGUUUUCCCCUGAUAGUGCUAAGGGGGCCUGGAAGUUUGGACUGGGCAGAGCUCAACACAGCGUGGCAAAGUGGCUGUGGCUAGACUGCCUCUCUGGAUUCCGCGUCUCUCAGCAGGGCAUCUCUGAGAGAAAUGCC
Result: criterion met

Ask: Field entry: UACGUAGGUGGUUUUCCCCUGAUAGUGCUAAGGGGGCCUGGAAGUUUGGACUGGGCAGAGCUUAACACAGCGUGGCAAAGUGGCUGUGGCUAGACUGCCUCACUGGAUUCCUCGUCACUCAGCAGGGCAUCUCUGAGAGAAAUGCC
Result: criterion not met

Ask: Field entry: UACGUAGGUGGUUUUCCCCUGAUAGUGCUAAGGGCGCCUGGAAGUUUGGACUGGGCAGAGCUCAACACAGCGUGGCAAAGUGGCUGUGGCCAGACUGCCUCUCUGGAUUCCUCGUCACUCAGCAGGGCAUCUCUGAGAGAAAUGCC
Result: criterion not met

Ask: Field entry: UACGUAGGUAGUUUUCCCCUGAUAGUGCUAAGGGGGCCUGGAAGUUUGGACUGGGCAGAGCUCAACACAGCGUGGCAAAGUGGCUGUGGCUAGACUGCCUCUCUGGAUUCCUCGUCACUCGGCAGGGCAUCUCUGAGAGAAAUGCC
Result: criterion met

Ask: Field entry: UACGGAGGUGGUUUUCCCCUGAUAGUGCUAAGGCGGCCUGGAAGUUUGGACUGGGCAGAGCUCAACACAGCGUGGCAAAGUGGCUGUGGCUAGACUGCCUCUCUGGAUUCCUCGUCACUCAGCAGGGCAUCUCUGAGAGAAAUGCC
Result: criterion not met

Ask: Field entry: AACGUAGGUGGUUUUCCCCUGAUAGUGCUAAGGGGGCCUGGAAGUUUGGACUGGGCAGAGCGCAACACAGCGUGGCAAAGUGGCUGUGGCUAGACUGCCUCUCUGGAUUCCUCGUCACUCAGCAGGGCAUCUCUGAGAGAAAUGCC
Result: criterion not met

Ask: Field entry: UACGUAGGUGGUUUUCCCCUGAUAGUGCUAAGGGGGCUUGGAAGUUUGGACUGGGCAGAGCUCAACACAGCGUGGCAGAGUGGCUGUGGCUAGACUGCCUCUCUGGAUUCCUCGUCACUCAGCAGGGCAUCUCUGAGAGAAAUGCC
Result: criterion met

Ask: Field entry: UACGGAGGUGGUUUUCCCCUGAUAGUGCUAAGGGGGCCUGGAAGUUUGGACUGGGCAGAGCUCAACACAGCGUGGCAAAGUGGCUGUGGCUAGACUGCCCCUCUGGAUUCCUCGUCACUCAGCAGGGCAUCUCUGAGAGAAAUGCC
Result: criterion met

Ask: Field entry: UACGUAGGUGGUUAUCCCCUGAUAGUGCUAAGGGGGCCUGGAAGUUUGGACUGGGCAGAGCACAACACAGCGUGGCAAAGUGGCUGUGGCUAGACUGCCUCUCUGGAUUCCUCGUCACUCAGCAGGGCAUCUCUGAGAGAAAUGCC
Result: criterion not met

Ask: Field entry: UACGUAGGUGGUUUUCCCCUGAUAGUGCUAAGGGGGCCUGGAAGUUUGGACUGGGCAGAGCUCAACACAGCGUGGCAAAGUGGCUGUGGCUCGACUGCCUCUCUGGAUUCCUCGUCACUCAGCGGGGCAUCUCUGAGAGAAAUGCC
Result: criterion not met

Ask: Field entry: UACGUAGGUGGUUUUCCCCUGAUAGUGCUAAGGGGGCCUGGAAGUUUGGACUGGGCAGAGCUCAACAUAGCGUGGCAAAGUGGCUGUGGCUAGACUGCCUCUCUGGAUUCCUCGUCACUCAGCAGGGCAUCUCUGAGAGGAAUGCC
Result: criterion not met

Ask: Field entry: UACGUAGGUGGUUUUCCCCUGACAGUGCUAAGGGGGCCUGGAAGUUUGGACUGGGCAGAGCUCAACACAGCGUGGCUAAGUGGCUGUGGCUAGACUGCCUCUCUGGAUUCCUCGUCACUCAGCAGGGCAUCUCUGAGAGAAAUGCC
Result: criterion met

Ask: Field entry: UACGCAGGUGGUUUUCCCCUGAUAGUGCUAAGGGGGCCUGGAAGUUUGGACUGGGCAGAGCUCAACACAGCGUGGCAAAGUGGCUGUGGCUAGACUGCCUCUCUGGAUUCCUCGUCACUCAGCAGGGCAACUCUGAGAGAAAUGCC
Result: criterion not met

Ask: Field entry: UACGUAGGUGGUUUUCCCCUGAUAGUGCUAAGGGGACCUGGAAGUUCGGACUGGGCAGAGCUCAACACAGCGUGGCAAAGUGGCUGUGGCUAGACUGCCUCUCUGGAUUCCUCGUCACUCAGCAGGGCAUCUCUGAGAGAAAUGCC
Result: criterion not met

Ask: Field entry: UACGUAGAUGGUUUUCCCCUGAUAGUGCUAAGGGGGCCUGGAAGUUUGGACUGGGCAGAGCUCAACACAGCGUGGCAAAGUGGCUGUGGCUAGACUGCCUCUCUGGAUUCCUCGUCACUCAGCAGGGCAUCCCUGAGAGAAAUGCC
Result: criterion met
